Sequence of the target: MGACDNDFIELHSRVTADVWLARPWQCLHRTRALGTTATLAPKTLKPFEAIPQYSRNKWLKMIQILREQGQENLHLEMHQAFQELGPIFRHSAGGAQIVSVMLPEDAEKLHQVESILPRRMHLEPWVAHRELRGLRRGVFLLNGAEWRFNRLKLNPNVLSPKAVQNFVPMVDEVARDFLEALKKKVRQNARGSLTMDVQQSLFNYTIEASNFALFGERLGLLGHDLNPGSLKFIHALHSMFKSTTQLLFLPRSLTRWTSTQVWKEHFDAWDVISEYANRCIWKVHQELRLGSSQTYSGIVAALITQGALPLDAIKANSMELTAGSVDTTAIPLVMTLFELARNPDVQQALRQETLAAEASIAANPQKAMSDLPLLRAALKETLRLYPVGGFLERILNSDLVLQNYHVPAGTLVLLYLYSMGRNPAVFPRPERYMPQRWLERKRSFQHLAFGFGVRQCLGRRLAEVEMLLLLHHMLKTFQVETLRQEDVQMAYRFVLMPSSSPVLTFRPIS
Result type: IC50 (µM)
Numeric only. Scale: µM

Some solved entries appear below for comparison.
Compound | Reading unit | Reading
COc1ccc2c(c1)C1C(CC2)C1c1ccncc1 (stereo in doubt; (-)-4) | µM | 10
COc1ccc2c(c1)C1C(CC2)C1c1ccncc1 (stereo in doubt; 4) | µM | 15

Data request, read-out IC50, for Oc1ccc2c(c1)C1C(CC2)C1c1ccncc1 (centres undefined)
7

Entry COc1ccc2c(c1)C1C(CC2)C1c1ccncc1 (single isomer, unassigned; (+)) : reported IC50 = ?
6

* * *

- Study system: Aromatase (Rattus norvegicus, UniProt P22443)
- Sequence (P22443 whole entry): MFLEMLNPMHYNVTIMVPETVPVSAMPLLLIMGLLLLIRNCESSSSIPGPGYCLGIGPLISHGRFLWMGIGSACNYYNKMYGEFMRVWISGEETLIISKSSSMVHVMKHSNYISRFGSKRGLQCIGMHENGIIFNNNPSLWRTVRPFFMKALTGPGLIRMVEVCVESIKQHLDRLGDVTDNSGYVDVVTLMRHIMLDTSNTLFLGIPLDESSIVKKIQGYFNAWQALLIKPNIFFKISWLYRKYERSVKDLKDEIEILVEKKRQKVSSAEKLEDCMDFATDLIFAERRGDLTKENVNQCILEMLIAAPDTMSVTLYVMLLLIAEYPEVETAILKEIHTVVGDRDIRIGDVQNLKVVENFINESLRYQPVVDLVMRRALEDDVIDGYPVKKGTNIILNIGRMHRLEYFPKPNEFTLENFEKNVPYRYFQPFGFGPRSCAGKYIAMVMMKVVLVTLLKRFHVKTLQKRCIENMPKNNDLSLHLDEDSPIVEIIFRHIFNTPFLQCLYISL
Result type: pIC50
Note on units: pIC50 is unitless, being -log10 of a concentration expressed in mol/L.

Recorded pIC50 of COc1ccc2c(c1)C1C(CC2)C1c1ccncc1 (stereo in doubt; 4) , please.
6.58

* * *

- Study system: Cytochrome P450 18 hydroxylase (Cytochrome P450 11B2, mitochondrial) (Homo sapiens, UniProt P19099)
- Sequence (P19099 whole entry): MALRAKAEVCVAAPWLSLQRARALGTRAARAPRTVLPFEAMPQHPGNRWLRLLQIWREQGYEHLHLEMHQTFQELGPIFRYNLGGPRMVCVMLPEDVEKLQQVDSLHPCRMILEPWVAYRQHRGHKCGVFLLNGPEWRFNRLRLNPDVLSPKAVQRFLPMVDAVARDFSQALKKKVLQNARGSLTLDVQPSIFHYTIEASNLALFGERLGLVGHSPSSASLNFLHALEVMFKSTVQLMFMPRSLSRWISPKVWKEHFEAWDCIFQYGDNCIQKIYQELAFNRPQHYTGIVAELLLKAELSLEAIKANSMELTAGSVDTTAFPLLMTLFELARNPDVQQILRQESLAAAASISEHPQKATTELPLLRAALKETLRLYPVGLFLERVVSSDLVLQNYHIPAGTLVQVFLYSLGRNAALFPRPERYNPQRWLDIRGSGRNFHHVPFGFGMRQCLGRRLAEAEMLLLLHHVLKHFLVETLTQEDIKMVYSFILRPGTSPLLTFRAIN
- Measurement description: in vitro
- Experimental parameters: cattle
compounds and their reported inhibition at 1 µM
Provide only the numeric value, understood in %.

Compound | Reading
Oc1ccc2c(c1)CCC1C(c3ccncc3)C21 (centres undefined) | 36
c1ccc2c(c1)CCC1C(c3ccncc3)C21 (centres undefined) | 55
COc1ccc2c(c1)C1C(CC2)C1c1ccncc1 (stereo in doubt; 4) | 45

Continue with the compound presented below.
Which inhibition at 1 µM is reported for this compound? COc1cccc2c1CCC1C(c3ccncc3)C21 (centres undefined)
38
